Biological target: T1, Macaca fascicularis IL2Rγ extracellular domain expressed with a C-terminal myc-myc-hexahistidine tag (Macaca fascicularis)
T1 construct: also called mfIL-2Rg-MMH; mfIL-2RG-MMH
T1 chain: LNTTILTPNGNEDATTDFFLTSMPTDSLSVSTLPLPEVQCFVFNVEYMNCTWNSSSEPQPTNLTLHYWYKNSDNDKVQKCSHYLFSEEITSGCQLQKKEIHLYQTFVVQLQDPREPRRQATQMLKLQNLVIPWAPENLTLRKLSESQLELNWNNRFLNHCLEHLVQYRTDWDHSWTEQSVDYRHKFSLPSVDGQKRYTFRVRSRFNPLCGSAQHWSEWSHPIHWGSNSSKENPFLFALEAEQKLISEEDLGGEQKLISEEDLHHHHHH
Assay: SPR Biacore 4000, mAb captured by anti-hFc, 37C, dissociation in PBS-T pH 7.4
Experimental: The dissociation rate constant (kd) for binding of IL-2Rγ reagents to purified anti-IL2Rγ monoclonal antibodies was determined using a real-time surface plasmon resonance based Biacore 4000 biosensor platform. […] Dissociation rate constants (kd) in two running buffers were determined by fitting the real-time binding sensorgrams to a 1:1 binding model using Scrubber 2.0c curve-fitting software. […]
observationType: koff (s⁻¹)
Write it as a number; the unit s⁻¹ goes unstated.

Q: For the binder shown here, H4H12889P (antibody, human IgG4 S228P, kappa, V domains shown, anti-IL2Rγ monoclonal antibody expressed with human IgG4 Fc; also called REGN7257) VH: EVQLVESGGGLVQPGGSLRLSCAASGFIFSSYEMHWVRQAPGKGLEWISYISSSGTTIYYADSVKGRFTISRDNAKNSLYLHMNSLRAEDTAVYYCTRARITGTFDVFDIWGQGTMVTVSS VL: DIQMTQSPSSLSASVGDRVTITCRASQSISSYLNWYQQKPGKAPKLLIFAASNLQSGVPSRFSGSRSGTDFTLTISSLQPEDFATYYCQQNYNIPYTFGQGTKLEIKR , give the reported koff.
A: 0.000578

Q: Now give it for H4H12871P (antibody, human IgG4 S228P, kappa, V domains shown, anti-IL2Rγ monoclonal antibody expressed with human IgG4 Fc; also called REGN9434) VH: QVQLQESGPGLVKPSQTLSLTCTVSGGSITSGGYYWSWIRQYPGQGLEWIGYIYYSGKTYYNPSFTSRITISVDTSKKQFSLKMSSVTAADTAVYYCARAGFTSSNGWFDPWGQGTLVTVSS VL: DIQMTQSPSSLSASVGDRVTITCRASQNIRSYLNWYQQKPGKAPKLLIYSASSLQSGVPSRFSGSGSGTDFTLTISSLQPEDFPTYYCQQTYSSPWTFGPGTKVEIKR too.
A: 0.00102

Q: // repeat for H4H12899P (antibody, human IgG4 S228P, kappa, V domains shown, anti-IL2Rγ monoclonal antibody expressed with human IgG4 Fc) VH: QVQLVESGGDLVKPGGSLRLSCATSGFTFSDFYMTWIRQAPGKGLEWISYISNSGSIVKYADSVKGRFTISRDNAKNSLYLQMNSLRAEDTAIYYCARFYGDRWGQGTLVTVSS VL: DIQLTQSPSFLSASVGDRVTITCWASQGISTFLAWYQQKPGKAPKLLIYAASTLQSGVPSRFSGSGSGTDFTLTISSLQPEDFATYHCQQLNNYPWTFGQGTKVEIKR and report
A: 0.000552
